MEASURED ON: PAF1 165-376 Paf1 (domain begin residue: 165, domain end residue: 376), Q8N7H5
ASSAY REMARKS: phage ELISA signal ratio (GST-PRM binding over GST background); higher = stronger binding of peptide-phage to the PRM
Would you please tag the item satisfied when its phage ELISA signal ratio is 5 or above, and not satisfied when it is below?

BINDER	CATEGORY LABEL
MDIWDEMALSINPYMY	not satisfied
SELWDHWIEWNDVYQT	not satisfied
QVDMMSQLFMMADQWN	not satisfied
WDFPGWSADQMPFSQS	not satisfied
WGWDEMLNDPEIMRIV	satisfied
